Entries and their log10 IC50
Biological target: human 11β-HSD1 (Homo sapiens, UniProt P28845)
Construct: 100 ug/ml human/mouse liver microsomes; from tissue; host or cells: human liver microsomes
Sequence (P28845 whole entry): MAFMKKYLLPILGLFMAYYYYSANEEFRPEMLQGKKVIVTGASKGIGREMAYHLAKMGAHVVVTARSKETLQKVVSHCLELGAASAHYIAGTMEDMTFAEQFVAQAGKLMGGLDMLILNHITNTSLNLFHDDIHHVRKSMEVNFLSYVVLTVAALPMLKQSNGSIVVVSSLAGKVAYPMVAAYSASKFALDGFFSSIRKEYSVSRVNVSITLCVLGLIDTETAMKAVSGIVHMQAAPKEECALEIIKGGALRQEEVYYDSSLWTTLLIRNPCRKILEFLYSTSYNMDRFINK
Assay: Enzyme activity analysis on human 11β-HSD1 (HTRF cortisol, liver microsomes)
Type: biochemical
Conditions: first value of cell
Observable: log10 IC50 (log10 of the value in µM)

[[record]]
compound = "CC(=O)c1ccc(S(=O)(=O)NC(C)(C)C(=O)NC2C3CC4CC(C3)CC2C4)cc1 (centres unmarked)"
recorded_result = -0.08

[[record]]
compound = "Cc1ccc([N+](=O)[O-])cc1S(=O)(=O)NC(C)(C)C(=O)NC1C2CC3CC1CC(O)(C3)C2 (centres unmarked)"
recorded_result = -0.84

[[record]]
compound = "CC(C)(NS(=O)(=O)c1ccc(Cl)c(Cl)c1Cl)C(=O)NC1C2CC3CC(C2)CC1C3 (centres unmarked)"
recorded_result = -0.74

[[record]]
compound = "CC(C)(NS(=O)(=O)c1cccc(Br)c1)C(=O)NC1C2CC3CC1CC(C(N)=O)(C3)C2 (centres unmarked)"
recorded_result = -0.86

[[record]]
compound = "NC(=O)C12CC3CC(C1)C(NC(=O)C1(NS(=O)(=O)c4cccc5cccnc45)CCCC1)C(C3)C2 (centres unmarked)"
recorded_result = -1.66

[[record]]
compound = "COc1ccc(S(=O)(=O)NC(C)(C)C(=O)NC2C3CC4CC2CC(C(N)=O)(C4)C3)cc1F (centres unmarked)"
recorded_result = -0.63

[[record]]
compound = "NC(=O)C12CC3CC(C1)C(NC(=O)C1(NS(=O)(=O)c4ccccc4C(F)(F)F)CCC1)C(C3)C2 (centres unmarked)"
recorded_result = -1.21

[[record]]
compound = "NC(=O)C12CC3CC(C1)C(NC(=O)C1(NS(=O)(=O)c4ccccc4Cl)CCCC1)C(C3)C2 (centres unmarked)"
recorded_result = -1.96

[[record]]
compound = "CC(C)(NS(=O)(=O)c1cccc([N+](=O)[O-])c1)C(=O)NC1C2CC3CC1CC(O)(C3)C2 (centres unmarked)"
recorded_result = -0.31

[[record]]
compound = "CC(C)(NS(=O)(=O)c1ccc(F)cc1Cl)C(=O)NC1C2CC3CC(C2)CC1C3 (centres unmarked)"
recorded_result = -1.41

[[record]]
compound = "COc1ccc(S(=O)(=O)NC2(C(=O)NC3C4CC5CC3CC(C(N)=O)(C5)C4)CCC2)cc1F (centres unmarked)"
recorded_result = 0.21

[[record]]
compound = "CC(C)(NS(=O)(=O)c1ccc(Cl)cc1Cl)C(=O)NC1C2CC3CC(C2)CC1C3 (centres unmarked)"
recorded_result = -0.98

[[record]]
compound = "CC(C)(NS(=O)(=O)c1ccc([N+](=O)[O-])c(C(F)(F)F)c1)C(=O)NC1C2CC3CC1CC(C(N)=O)(C3)C2 (centres unmarked)"
recorded_result = -0.68

[[record]]
compound = "CC(C)(NS(=O)(=O)c1ccccc1F)C(=O)NC1C2CC3CC1CC(O)(C3)C2 (centres unmarked)"
recorded_result = -0.93

[[record]]
compound = "CN(C(C)(C)C(=O)NC1C2CC3CC1CC(C(N)=O)(C3)C2)S(=O)(=O)c1ccccc1Br (centres unmarked)"
recorded_result = -1.74

[[record]]
compound = "NC(=O)C12CC3CC(C1)C(NC(=O)C1(NS(=O)(=O)c4ccccc4N)CCC1)C(C3)C2 (centres unmarked)"
recorded_result = -1.10

[[record]]
compound = "Cc1ccccc1S(=O)(=O)NC1(C(=O)NC2C3CC4CC2CC(C(N)=O)(C4)C3)CCC1 (centres unmarked)"
recorded_result = -1.34

[[record]]
compound = "CC(C)(NS(=O)(=O)c1ccc(Br)cc1)C(=O)NC1C2CC3CC1CC(C(N)=O)(C3)C2 (centres unmarked)"
recorded_result = -1.62

